test system: PC26; assay: qHTS profiling for inhibitors of Plasmodium falciparum proliferation (AID 504749); further: nearly all actives have a fitted effect of over 60% in size; conditions: P. falciparum in erythrocytes, SYBR Green DNA, 72 h; series mostly up to 28.7 µM
Records with an inconclusive call do not appear. Calls of active or inactive are those of the source. The call rests on the fitted dose curve; in most records, active means well fitted inhibition curve with a large enough effect; inconclusive means small, poorly fitted or top-dose-only effect; inactive means flat fitted curve, though single readings scatter.
Your answer must be one of the following: label 1 = active, label 0 = inactive

Field: outcome | Entry: CC(C)OC(=O)C(C(=O)OC(C)C)=C1SC=CS1
label 0

Lookup COC(=O)Nc1nc2ccc(Sc3ccccc3)cc2[nH]1
label 0

Proceed to CN1CCN(c2c(F)cc3c(=O)c(C(=O)O)cn(CCF)c3c2F)CC1
label 0

Also COc1cnc(NS(=O)(=O)c2ccc(N)cc2)nc1 ?
label 0

What would you report for CCCc1cc(C(N)=S)ccn1 ?
label 0

Now give it for O=C(O)c1cc(=O)[nH]c(=O)[nH]1 too.
label 0

Also CCCc1nc(C)c2c(=O)[nH]c(-c3cc(S(=O)(=O)N4CCN(CC)CC4)ccc3OCC)nn12 ?
label 0

====

assay: Confirmation and Secondary Assay for Modulators of Hemoglobin Beta Chain Splicing at IVS2 654 locus (AID 910); conditions: HeLa EGFP-654 splicing reporter, GFP fluorescence, 48 h; series mostly up to 46.1 µM;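 further: HeLa cells stably carrying EGFP split by mutant beta-globin IVS2-654 intron; per-well total GFP intensity by laser scanning cytometry after 2-day treatment; % of control where 0% means no effect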
Active and inactive are the calls of the source. Calls follow the shape of the dose curve; as a rule, active = well fitted activation curve with a large enough effect; inconclusive = small, poorly fitted or top-dose-only effect; inactive = flat fitted curve, though single readings scatter.
Measure: outcome

• CCn1cc(C(=O)O)c(=O)c2cc(F)c(N3CCNCC3)nc21 = inactive
• O=S(=O)(O)CCS = inactive
• CN(C)c1ccc(C(=C2C=CC(=[N+](C)C)C=C2)c2ccc(N(C)C)cc2)cc1 = inactive
• CNS(=O)(=O)Cc1ccc2[nH]cc(CCN(C)C)c2c1 = inactive
• COc1cnc(NS(=O)(=O)c2ccc(N)cc2)nc1 = inactive

Turning to the following compound.
Report outcome for Cc1nnc(NS(=O)(=O)c2ccc(N)cc2)s1 please.
inactive

====

experiment: Quantitative High-Throughput drug screen in 47 multiple myeloma cell lines against the NCATS MIPE library collection: VP6_DJ cell viability assay (AID 1919867); conditions: ATP luminescence, 48 h; series mostly up to 45.8 µM; further: nearly all actives have a fitted effect of over 40% in size
Results filed as inconclusive are left out. The source made the active and inactive calls. Calls follow the shape of the dose curve; as a rule, active = well fitted cell-killing curve with a large enough effect; inconclusive = small, poorly fitted or top-dose-only effect, or effect the other way; inactive = no such curve, though single readings can be large or run the other way.
# valid calls are 1 = active, -1 = inactive; nothing else

Worked cases, answers included:
• CCc1c2c(nc3ccc(OC(=O)N4CCC(N5CCCCC5)CC4)cc13)-c1cc3c(c(=O)n1C2)COC(=O)[C@]3(O)CC = 1
• CCOCC(O)COc1ccc(NC(=O)CC[S+](C)C)cc1 (configuration not stated) = -1
• CCCOc1ccc(C(=O)OCCN(CC)CC)cc1N = 1
• Cc1oc(=O)oc1CN1CCN(c2cc3c(cc2F)c(=O)c(C(=O)O)c2n3C(C)S2)CC1 (configuration not stated) = -1
• O=c1cc(O)c(Cl)c[nH]1 = 1
• NC(=O)c1cccnc1 = -1

Turning to the following molecule.
Just curious, what result did O=C(O)c1ccc(-n2nc(-c3ccccc3O)nc2-c2ccccc2O)cc1 get here?
1

====

Below, each entry is listed alongside its reported Potency.
experiment: qHTS Assay for Identifying Gametocytocidal Compounds (AID 743244); further: potency means the concentration at half of the fitted maximal effect; conditions: P. falciparum 3D7 stage III-V gametocytes, alamarBlue, 72 h
Inconclusive results are not listed. Calls of active or inactive are those of the source. Calls come from the whole dose curve; as a rule, active = well fitted curve in the direction sought with a large enough effect; inconclusive = small, poorly fitted or top-dose-only effect, or another doubt; inactive = no such curve, though single readings can be large or run the other way.

The cases that follow already have their Potency on record.
- CN(C)c1ccc(C(=C2C=CC(=[N+](C)C)C=C2)c2ccc(N(C)C)cc2)cc1: 7.08 µM (active)
- NC1(c2ccc(-c3nc4ccn5c(=O)[nH]nc5c4cc3-c3ccccc3)cc2)CCC1: 11.8 µM (active)
- Oc1c(Cl)cc(Cl)c2cccnc12: 7.08 µM (active)
- CC1=CC(=O)c2ccccc2C1=O: 12.6 µM (active)

Value lookup for Potency; key = CC(C)C[C@H](NC(=O)[C@H](CCc1ccccc1)NC(=O)CN1CCOCC1)C(=O)N[C@@H](Cc1ccccc1)C(=O)N[C@@H](CC(C)C)C(=O)[C@@]1(C)CO1
0.0118 µM (active)

Input N=C(N)c1ccc(OCCCCCOc2ccc(C(=N)N)cc2)cc1
6.31 µM (active)

====

experiment: qHTS Assay for Lipid Storage Modulators (AID 1519); settings: Drosophila S3 cells, BODIPY lipid droplet/cell ratio, laser cytometry; measured here: lipid channel max response; cells loaded with oleic acid
Results filed as inconclusive are left out.
Listing of recorded max response by entry.

For the molecule O=S(=O)(O)CCS , what max response is on record?
25.1%

Queued: CCOC(=O)c1ccc(OC(=O)CCCCCN=C(N)N)cc1
-13.1%

Also check CC1=C(C(=O)O)N2C(=O)[C@@H](NC(=O)C(N)c3ccccc3)[C@H]2SC1 (some centres not stated)
-16%

Try NCCCC(O)(P(=O)(O)O)P(=O)(O)O next.
16.4%

Follow-up item: CC(=O)[C@H]1CC[C@H]2[C@@H]3CCC4=CC(=O)CC[C@]4(C)[C@H]3CC[C@]12C
-13.1%

What do we get for CC1=NN(c2ccccc2)C(=O)C1 ?
20.6%

// query: O=S(=O)(c1cccc2cnccc12)N1CCCNCC1
6.29%

Next molecule: COc1ncnc(NS(=O)(=O)c2ccc(N)cc2)c1OC
-23.2%

One more molecule: CNS(=O)(=O)Cc1ccc2[nH]cc(CCN(C)C)c2c1
52.5%

Thanks! And Clc1ccccc1CN1CCc2sccc2C1 ?
-18.8%

Param item: CC(C)(C)NC(=O)[C@H]1CC[C@H]2[C@@H]3CC[C@H]4NC(=O)C=C[C@]4(C)[C@H]3CC[C@]12C
-42.5%

Entry to check: NC(=O)c1cccc(N)c1
59.1%

====

Quick reference: max response of the listed items.
experiment: qHTS assay for small molecule agonists of the antioxidant response element (ARE) signaling pathway measured by Nrf2-dependant transcriptional activity - cell viability counter screen (AID 720653); conditions: ARE-bla HepG2 viability, CellTiter-Glo ATP luminescence, 16 h; stronger effect = lower value; further: on the % scale 0 is the no-effect control and ±100 the full control effect
Results filed as inconclusive are left out.
Quick reminder: number only, in %, skip the unit.

Consider the following illustrative entries.
* Cc1cc(NS(=O)(=O)c2ccc(N)cc2)no1 | 3.89
* O=C(O)c1cc(=O)[nH]c(=O)[nH]1 | 16.2
* Cc1ccnc2c1NC(=O)c1cccnc1N2C1CC1 | -0.463
* S=P(N1CC1)(N1CC1)N1CC1 | -3.97

Consider now this further compound.
Could you tell me which max response is on file for NNC(=O)c1ccncc1 ?
-4.52

====

tested on: DIV14; assay: qHTS profiling for inhibitors of Plasmodium falciparum proliferation (AID 504749); further: nearly all actives have a fitted effect of over 60% in size; conditions: P. falciparum in erythrocytes, SYBR Green DNA, 72 h; series mostly up to 28.7 µM
Records with an inconclusive call do not appear. Active and inactive are the calls of the source. Calls follow the shape of the dose curve; as a rule, active = well fitted inhibition curve with a large enough effect; inconclusive = small, poorly fitted or top-dose-only effect; inactive = flat fitted curve, though single readings scatter.
Thanks in advance; please answer with one of these: active, inactive

So what was the verdict on CC1=NN(c2ccccc2)C(=O)C1 in this test?
inactive

====

test system: DIV30; assay: qHTS profiling for inhibitors of Plasmodium falciparum proliferation (AID 504749); further: nearly all actives have a fitted effect of over 60% in size; further: potency means the concentration at half of the fitted maximal effect; conditions: P. falciparum in erythrocytes, SYBR Green DNA, 72 h; series mostly up to 28.7 µM
Inconclusive results are not listed. The source made the active and inactive calls. Calls come from the whole dose curve; as a rule, active = well fitted inhibition curve with a large enough effect; inconclusive = small, poorly fitted or top-dose-only effect; inactive = flat fitted curve, though single readings scatter.
Measure: Potency

Please review the entries below; each comes with its answer.
- C[C@@H](NCCCc1cccc(C(F)(F)F)c1)c1cccc2ccccc12: 7.57 µM (active)
- COc1ncnc(NS(=O)(=O)c2ccc(N)cc2)c1OC: inactive
- COc1ccc(-c2ccc3cc(C(=O)O)ccc3c2)cc1C12CC3CC(CC(C3)C1)C2: inactive
- CN1CCN(c2c(F)cc3c(=O)c(C(=O)O)cn(CCF)c3c2F)CC1: inactive

Here is another compound to look at.
# get_value(readout='Potency', item= C[C@]12C=CC(=O)C=C1CC[C@@H]1[C@@H]2C(=O)C[C@@]2(C)[C@H]1CC[C@]2(O)C(=O)CO )
inactive

====

experiment: qHTS profiling for inhibitors of Plasmodium falciparum proliferation (AID 504749); further: nearly all actives have a fitted effect of over 60% in size;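 on activity, negative = inhibition: 0% = DMSO vehicle and full inhibition = artemisinin control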; conditions: P. falciparum in erythrocytes, SYBR Green DNA, 72 h; at 28.7 µM (top of the series); parasite line A
Records with an inconclusive call do not appear.
Measure: activity, negative = inhibition (%)
Your answer is read as %, so omit the unit and give the number.

Please review the entries below; each comes with its answer.
* CCOCC(O)COc1ccc(NC(=O)CC[S+](C)C)cc1 (stereo unspecified) | 8.74
* CCCN[C@H]1CCc2nc(N)sc2C1 | 16.7
* CC[C@H](C)C(=O)O[C@H]1C[C@@H](C)C=C2C=C[C@H](C)[C@H](CC[C@@H]3C[C@@H](O)CC(=O)O3)[C@H]21 | -2.1
* CCc1c2c(nc3ccc(OC(=O)N4CCC(N5CCCCC5)CC4)cc13)-c1cc3c(c(=O)n1C2)COC(=O)[C@]3(O)CC | -1.15
* CC1=CC(=O)c2ccccc2C1=O | -6.5

Consider the record given below.
Give its activity, negative = inhibition value. Item: O=NN(CCCl)C(=O)NC1CCCCC1
5.42
